Data provenance: patent US8580832B2

Target: ERR1 (also known as ERR-α or ERR-1) (Homo sapiens, UniProt P11474)
Construct: the ^6His-tagged-ERR1 LBD
Sequence (P11474 193-421 limits assumed): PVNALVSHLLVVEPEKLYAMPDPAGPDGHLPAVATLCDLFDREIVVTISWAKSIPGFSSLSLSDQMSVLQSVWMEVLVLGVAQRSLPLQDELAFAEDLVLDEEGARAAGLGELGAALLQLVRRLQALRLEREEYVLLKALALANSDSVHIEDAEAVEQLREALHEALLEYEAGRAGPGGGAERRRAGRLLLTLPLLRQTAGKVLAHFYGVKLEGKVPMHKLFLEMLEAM
Assay Procedure: TR-FRET assay: disruption of co-activator peptide binding to ERR1 LBD
Condition Parameters: 6His-tagged ERR1 LBD 6 nM, GST-SRC-2 peptide 6 nM, 25° C., 4-18 hours; average of 3 independent experiments
Quick reference for EC50 among some compounds

// below: answered compounds
compound="COc1cc(/C=C2\\SC(N(C)C)=NC2=O)ccc1Oc1ccc(C#N)cc1C(F)(F)F [Example 81]" observed_value="17 nM"
compound="COc1cc(/C=C2\\SC(NC3CCOCC3)=NC2=O)ccc1Oc1ccc(C#N)cc1C(F)(F)F [Compound 15]" observed_value="18 nM"

Lab note: next compound to report on.
Prompt line: Given COc1cc(/C=C2\SC(NCCF)=NC2=O)ccc1Oc1ccc(C#N)cc1C(F)(F)F [Example 91] , respond with its EC50.
Response line: 9 nM

* * *

Target: ERR1 (also known as ERR-α or ERR-1) (Homo sapiens, UniProt P11474)
Construct: the ^6His-tagged-ERR1 LBD
Assay Procedure: TR-FRET assay: disruption of co-activator peptide binding to ERR1 LBD
Condition Parameters: 6His-tagged ERR1 LBD 6 nM, GST-SRC-2 peptide 6 nM, 25° C., 4-18 hours; average of 3 independent experiments
Quantity Name: pEC50
pEC50 is defined as minus the log10 of a concentration measured in mol/L.

molecule="COc1cc(/C=C2\\SC(N(C)CC(O)CO)=NC2=O)ccc1Oc1ccc(Cl)cc1C(F)(F)F (stereo not drawn) [Example 62]" observed_value=8.52
molecule="COc1cc(/C=C2\\SC(NC3CCN(CCO)CC3)=NC2=O)ccc1Oc1ccc(C#N)cc1C(F)(F)F [Example 111]" observed_value=7.82
molecule="COC(=O)c1ccc(Oc2ccc(/C=C3\\SC(N4CCC(C(=O)OC)CC4)=NC3=O)cc2OC)c(C(F)(F)F)c1 [Example 113]" observed_value=7.85
molecule="COc1cc(/C=C2\\SC(NCC(F)F)=NC2=O)ccc1Oc1ccc(C#N)cc1C(F)(F)F [Example 92]" observed_value=8.22
molecule="COc1cc(/C=C2\\SC(N3CCN(C)CC3)=NC2=O)ccc1Oc1ccc(C#N)cc1C(F)(F)F [Compound 7]" observed_value=7.96

Prompt line: Given COc1cc(/C=C2\SC(NCCc3ccncc3)=NC2=O)ccc1Oc1ccc(C#N)cc1C(F)(F)F [Example 28] , respond with its pEC50.
Response line: 8.15

Prompt line: Given COc1cc(/C=C2\SC(NCCN3CCCC3=O)=NC2=O)ccc1Oc1ccc(Cl)cc1C(F)(F)F [Example 60] , respond with its pEC50.
Response line: 8.40

Prompt line: Given COc1cc(/C=C2\SC(N3CCN(CCO)CC3)=NC2=O)ccc1Oc1ccc(C#N)cc1C(F)(F)F [Compound 16] , respond with its pEC50.
Response line: 7.72

Prompt line: Given N#Cc1ccc(Oc2ccc(/C=C3\SC(N)=NC3=O)cc2Cl)c(C(F)(F)F)c1 [Compound 3] , respond with its pEC50.
Response line: 7.06

Prompt line: Given CCOc1cc(/C=C2\SC(N3CCNC(=O)C3)=NC2=O)ccc1Oc1ccc(C#N)cc1C(F)(F)F [Example 57] , respond with its pEC50.
Response line: 7.41

Prompt line: Given COc1cc(/C=C2\SC(N3CC(C(=O)O)C3)=NC2=O)ccc1Oc1ccc(C#N)cc1C(F)(F)F [Example 106] , respond with its pEC50.
Response line: 8.52

Prompt line: Given COc1cc(/C=C2\SC(NCCn3ccnc3)=NC2=O)ccc1Oc1ccc(C#N)cc1C(F)(F)F [Example 70] , respond with its pEC50.
Response line: 7.62

Prompt line: Given COC(=O)c1ccc(Oc2ccc(/C=C3\SC(N4CCCC(O)C4)=NC3=O)cc2OC)c(C(F)(F)F)c1 (stereo not drawn) [Example 53] , respond with its pEC50.
Response line: 7.38

Prompt line: Given COc1cc(/C=C2\SC(NC3CCN(C)CC3)=NC2=O)ccc1Oc1ccc(C#N)cc1C(F)(F)F [Compound 14] , respond with its pEC50.
Response line: 7.89

Prompt line: Given COc1cc(/C=C2\SC(NC3CCNC3)=NC2=O)ccc1Oc1ccc(C#N)cc1C(F)(F)F (stereo not drawn) [Compound 13] , respond with its pEC50.
Response line: 7.47
